Would you mind telling me the reported INHIBITION of each entry?
- Tested on: Plasmodium berghei
- assay-info: Screen against P. berghei liver stage (PbLuc), transformed with Luciferase, at 10uM
- Type: functional, HepG2
- condition-parameters: tested at 10 uM
About 8,600 (12%) of roughly 69,000 compounds showed an effect of 50% or more. The sample holds strong results, similar compounds and a random draw of the others, so the mix is not that of the screen.
Return type: number; implicit unit %.

Plasmodium berghei / INHIBITION / CN1CCN(CCCNC(=O)CCc2nc3cc(Br)cnc3[nH]2)CC1 : value? 38.9

Plasmodium berghei / INHIBITION / COc1ccccc1NC(=O)c1[nH]nc(C(C)C)c1Br : value? -101

Plasmodium berghei / INHIBITION / c1ccc(-n2cc(CNCC3CCCN3c3cccnn3)cn2)cc1 (centres undefined) : value? 41.5

Plasmodium berghei / INHIBITION / O=C(c1cnco1)N1CCC(Cc2cnc3ccccc3c2)CC1 : value? 14.4

Plasmodium berghei / INHIBITION / CC(C)(C)c1ncc(CNCC2CN(C3CC3)CCO2)s1 (centres undefined) : value? 37.7

Plasmodium berghei / INHIBITION / Cc1ccc(-n2nc3n(c2=O)CCN(C(=O)c2ccc(Cl)cc2)C3)cc1 : value? 15.9

Plasmodium berghei / INHIBITION / C[C@H]1CN(C(=O)c2ccoc2)C[C@@]12CCN(CCN(C)C)C2=O : value? -80

Plasmodium berghei / INHIBITION / Cc1ccc(CC(=O)NC(C)C(=O)N2CCS(=O)(=O)CC2)s1 (centres undefined) : value? 76.2

Plasmodium berghei / INHIBITION / Cc1cccc(NC(=O)c2cncc(C3CCNCC3)n2)n1 : value? 15.5

Plasmodium berghei / INHIBITION / CSc1ccc(OCCN2CCC(n3cncn3)CC2)cc1 : value? 27.6

Plasmodium berghei / INHIBITION / Cc1c(C(=O)NCC(C)C)nnn1-c1cccc2c1CCN(CCO)C2 : value? 45.7

Plasmodium berghei / INHIBITION / Cc1nn(C)c2cn(CC(=O)N3CCc4ccccc4C3)nc12 : value? 8.49

Plasmodium berghei / INHIBITION / CCOc1cc(C)nc(N2CCN(C(=O)c3cc(C)on3)CC2)n1 : value? 19.4

Plasmodium berghei / INHIBITION / COCC(=O)NCC1Cn2nnc(-c3ccncc3)c2CO1 (centres undefined) : value? -4.02

Plasmodium berghei / INHIBITION / CCn1cc(CN2CCC3(CC2)c2ccccc2CC3O)cn1 (centres undefined) : value? 2.7

Plasmodium berghei / INHIBITION / CC(C)c1n[nH]c(C(=O)Nc2cc[nH]n2)c1Br : value? 55.9

Plasmodium berghei / INHIBITION / CC(C)CC(NC(=O)c1cccc(F)c1F)C(=O)Nc1cc[nH]n1 (centres undefined) : value? -36.4

Plasmodium berghei / INHIBITION / Cc1ccc(CC(=O)NC(C)C(=O)N2CCS(=O)(=O)CC2)cc1 (centres undefined) : value? -11.1

Plasmodium berghei / INHIBITION / CC(NC(=O)c1cccs1)C(=O)NCc1ccccn1 (centres undefined) : value? 21.6

Plasmodium berghei / INHIBITION / COc1ccc(-n2cc3nc(N)[nH]cc-3c2=O)cc1 : value? 28.4

Plasmodium berghei / INHIBITION / CNC(=O)CCc1cc(C)nc(C2CCN(c3ccccc3)CC2)c1 : value? 20.24

Plasmodium berghei / INHIBITION / O=S(=O)(Cc1ccccc1)NCc1nnc2n1CCC2 : value? -12.4

Plasmodium berghei / INHIBITION / CCSc1ccccc1C(=O)N(CCOC)Cc1ccoc1 : value? 25.1

Plasmodium berghei / INHIBITION / Cc1cnc2c(S(=O)(=O)N(C)C3CCS(=O)(=O)C3)cccc2c1 (centres undefined) : value? 22.3
